- subject of test: sigma receptor (Rattus norvegicus)
- Sequence (Q9R0C9 whole entry): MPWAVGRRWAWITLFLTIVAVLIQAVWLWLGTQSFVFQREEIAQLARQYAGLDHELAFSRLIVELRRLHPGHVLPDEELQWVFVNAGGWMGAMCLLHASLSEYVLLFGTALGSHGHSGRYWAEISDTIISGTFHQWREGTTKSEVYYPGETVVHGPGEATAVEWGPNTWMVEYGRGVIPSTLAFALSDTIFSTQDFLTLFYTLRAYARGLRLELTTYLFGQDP
- Format: binding, male Sprague-Dawley rats
- measurement parameters: read-out: Ki apparent (nM) (units ± SEM); rat brain membranes, 2 nM [³H]-3-(+)-PPP, 1 hr at room temperature, displacing ligand 0.1-1000 nM
Could you please report measured Ki for the items listed next?

Example compounds with recorded Ki:
compound | Ki
CN1CCN(CC2CC3c4ccccc4C2c2ccccc23)CC1 (centres unmarked) [Compound No. 1] | 120 nM
OCCN1CCN(CC2CC3c4ccccc4C2c2ccccc23)CC1 (centres unmarked) [Compound No. 2] | 21 nM
c1ccc(CN2CCN(CC3CC4c5ccccc5C3c3ccccc34)CC2)cc1 (centres unmarked) [Compound No. 6] | 98 nM
c1ccc2c(c1)C1CC(CN3CCN4CCCC4C3)C2c2ccccc21 (centres unmarked) [Compound No. 4] | 20 nM

In the following, a different compound is considered.
Query :: What value of measured Ki is listed for c1cnc(N2CCN(CC3CC4c5ccccc5C3c3ccccc34)CC2)nc1 (centres unmarked) [Compound No. 3] ?
Result :: > 1000 nM
